B1: Ankyrin-1, residues 1405 to 1484; numbered along this chain, P16157 (parent)
chain: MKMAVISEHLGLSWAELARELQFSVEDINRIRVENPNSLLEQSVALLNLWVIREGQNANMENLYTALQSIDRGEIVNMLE

Variants of: B1
Assay remarks: abundance fitness (aPCA) (normalised: wild type 0, dead -1); higher = more abundant; growth selection in yeast, the domain comes from the species named
Setup conditions: Homo sapiens
# cutoff -0.2 applies to abundance fitness; >= gives 1, < gives 0

In: Check if abundance fitness >= -0.2 (inclusive). Item: MKMAVISEHLGLSWAELARELQFSVEDINRIRVENPNSLLEQWVALLNLWVIREGQNANMENLYTALQSIDRGEIVNMLE [S43W]
Out: 0

In: Form field: abundance fitness at least -0.2? Entry: MKMAVISEHLGLSWAELARELQFSVEDINRIRVENPNSLLEQSVALLNLRVIREGQNANMENLYTALQSIDRGEIVNMLE [W50R]
Out: 0

In: Confirm if abundance fitness reported for the variant MKMAVISEHLGLSWAELARELQFSVEDINRIRVENWNSLLEQSVALLNLWVIREGQNANMENLYTALQSIDRGEIVNMLE [P36W] is -0.2 or above.
Out: 0

In: Evaluate MKMAVISEHLGLSWAELARELQFSVEDINRIRVENPNSLLEQSVALLNLWVIREGQNANMENLVTALQSIDRGEIVNMLE [Y64V] : abundance fitness at minimum -0.2?
Out: 0

In: Reported abundance fitness at or above -0.2? MKMAVISEHLGLSWAELARELQFSVEDINRIRVENPNSLLEQSVALLNLWVIREGQNSNMENLYTALQSIDRGEIVNMLE [A58S]
Out: 1
